Where do these numbers come from? They come from paper PMC7827417.

tested on: A549; experiment: MTS cytotoxic assay, A549; assay type: cell-based; conditions: Homo sapiens, A549, 72 h
pIC50: −log10 of the molar value.
Measured Parameter: pIC50

Compound	Measured Parameter	Result Value
CO[C@H]1C[C@H](O[C@H]2CC[C@]3(C=O)[C@H]4CC[C@]5(C)[C@@H](C6=CC(=O)OC6)CC[C@]5(O)[C@@H]4CC[C@]3(O)C2)O[C@H](C)[C@H]1O	pIC50	7.82
C[C@]12CC[C@H]3[C@@H](CCC4=C[C@@H](O[C@@H]5OC[C@@H](O)[C@H](O)[C@H]5O)CC[C@@]43C=O)[C@@]1(O)CC[C@@H]2C1=CC(=O)OC1 [deHyr, deglucohyrcanoside]	pIC50	7.05
C[C@H]1O[C@@H](O[C@H]2[C@@H](O)C[C@H](O[C@H]3[C@@H](O)C[C@H](O[C@H]4CC[C@@]5(C)[C@H](CC[C@@H]6[C@@H]5CC[C@]5(C)[C@@H](C7=CC(=O)OC7)CC[C@]65O)C4)O[C@@H]3C)O[C@@H]2C)C[C@H](O)[C@@H]1O	pIC50	7.72
C[C@]12CC[C@H]3[C@@H](CCC4=C[C@@H](O[C@@H]5OC[C@@H](O[C@@H]6O[C@H](CO)[C@@H](O)[C@H](O)[C@H]6O)[C@H](O)[C@H]5O)CC[C@@]43C=O)[C@@]1(O)CC[C@@H]2C1=CC(=O)OC1	pIC50	6.26

###

test system: CCRF-CEM cells; assay: Cell cycle arrest and cell death analysis by flow cytometry (propidium iodide, pH3Ser10); format: cell-based, human; details: 1 × IC50, 24 h, % of positive cells
Some molecules, each annotated with its measured G2/M.
Measured Parameter: G2/M (%)

Smiles Repr	Assay Target	Measured Parameter	Result Value
C[C@@H]1O[C@@H](O[C@H]2C[C@@H](O)[C@]3(CO)[C@H]4[C@H](O)C[C@]5(C)[C@@H](C6=CC(=O)OC6)CC[C@]5(O)[C@@H]4CC[C@]3(O)C2)[C@H](O)[C@H](O)[C@H]1O	CCRF-CEM cells	G2/M	33.80
CO[C@H]1C[C@H](O[C@H]2CC[C@]3(C=O)[C@H]4CC[C@]5(C)[C@@H](C6=CC(=O)OC6)CC[C@]5(O)[C@@H]4CC[C@]3(O)C2)O[C@H](C)[C@H]1O	CCRF-CEM cells	G2/M	24.35
C[C@]12CC[C@H]3[C@@H](CCC4=C[C@@H](O[C@@H]5OC[C@@H](O[C@@H]6O[C@H](CO)[C@@H](O)[C@H](O)[C@H]6O)[C@H](O)[C@H]5O)CC[C@@]43C=O)[C@@]1(O)CC[C@@H]2C1=CC(=O)OC1	CCRF-CEM cells	G2/M	26.30

###

tested on: CCRF-CEM cells; experiment: Cell cycle arrest and cell death analysis by flow cytometry (propidium iodide, pH3Ser10); assay type: cell-based, human; conditions: 1 × IC50, 24 h, % of positive cells
Listed compounds paired with reported G2/M

Compound	Unit Spec	G2/M
C[C@]12CC[C@H]3[C@@H](CCC4=C[C@@H](O[C@@H]5OC[C@@H](O)[C@H](O)[C@H]5O)CC[C@@]43C=O)[C@@]1(O)CC[C@@H]2C1=CC(=O)OC1 [deHyr, deglucohyrcanoside]	%	37.50
C[C@H]1O[C@@H](O[C@H]2[C@@H](O)C[C@H](O[C@H]3[C@@H](O)C[C@H](O[C@H]4CC[C@@]5(C)[C@H](CC[C@@H]6[C@@H]5CC[C@]5(C)[C@@H](C7=CC(=O)OC7)CC[C@]65O)C4)O[C@@H]3C)O[C@@H]2C)C[C@H](O)[C@@H]1O [Dg, digitoxin]	%	30.51

###

tested on: CCRF-CEM cells; assay: Cell cycle arrest and cell death analysis by flow cytometry (propidium iodide, pH3Ser10); type: cell-based, human; conditions: 5 × IC50, 24 h, % of positive cells
Values of G2/M greater than or equal to 30% map to Yes; values below map to No.

Compound	Group
C[C@@H]1O[C@@H](O[C@H]2C[C@@H](O)[C@]3(CO)[C@H]4[C@H](O)C[C@]5(C)[C@@H](C6=CC(=O)OC6)CC[C@]5(O)[C@@H]4CC[C@]3(O)C2)[C@H](O)[C@H](O)[C@H]1O [Ob, ouabain]	No
C[C@]12CC[C@H]3[C@@H](CCC4=C[C@@H](O[C@@H]5OC[C@@H](O)[C@H](O)[C@H]5O)CC[C@@]43C=O)[C@@]1(O)CC[C@@H]2C1=CC(=O)OC1 [deHyr, deglucohyrcanoside]	No
C[C@]12CC[C@H]3[C@@H](CCC4=C[C@@H](O[C@@H]5OC[C@@H](O[C@@H]6O[C@H](CO)[C@@H](O)[C@H](O)[C@H]6O)[C@H](O)[C@H]5O)CC[C@@]43C=O)[C@@]1(O)CC[C@@H]2C1=CC(=O)OC1 [Hyr]	Yes
C[C@H]1O[C@@H](O[C@H]2[C@@H](O)C[C@H](O[C@H]3[C@@H](O)C[C@H](O[C@H]4CC[C@@]5(C)[C@H](CC[C@@H]6[C@@H]5CC[C@]5(C)[C@@H](C7=CC(=O)OC7)CC[C@]65O)C4)O[C@@H]3C)O[C@@H]2C)C[C@H](O)[C@@H]1O [Dg, digitoxin]	Yes
CO[C@H]1C[C@H](O[C@H]2CC[C@]3(C=O)[C@H]4CC[C@]5(C)[C@@H](C6=CC(=O)OC6)CC[C@]5(O)[C@@H]4CC[C@]3(O)C2)O[C@H](C)[C@H]1O [Cy, cymarin]	No
